- System: Candida antartica
- Run Description: Antifungal assay, growth inhibition by OD in 96 well plates
- Type: cell-based
- Run Parameters: 5 mg/ml sophorolipid solution, 48 hours at 30° C., OD at 400 nm vs control wells
Value Type: Inhibition % (%)
Quick reminder: number only, in %, skip the unit.

Some molecules with recorded Inhibition %:
Note to self: Inhibition % of CCOC(=O)CCCCCCC/C=C\CCCCCC[C@H](C)O[C@@H]1O[C@H](CO)[C@@H](O)[C@H](O)[C@H]1O[C@@H]1O[C@H](COC(C)=O)[C@@H](O)[C@H](O)[C@H]1O (relative stereo) [SL Ethyl Ester Monoacetate] with Candida antartica was 42

Note to self: Inhibition % of CCOC(=O)CCCCCCC/C=C\CCCCCCC(C)O[C@@H]1O[C@H](CO)[C@@H](O)[C@H](O)[C@H]1O[C@@H]1O[C@H](CO)[C@@H](O)[C@H](O)[C@H]1O (relative stereo) with Candida antartica was 28

Would you kindly look at the next entry?
Note to self: Inhibition % of CCOC(=O)CCCCCCC/C=C\CCCCCCC(C)O[C@@H]1O[C@H](COC(C)=O)[C@@H](O)[C@H](O)[C@H]1O[C@@H]1O[C@H](COC(C)=O)[C@@H](O)[C@H](O)[C@H]1O (relative stereo) [SL Ethyl Ester Diacetate] with Candida antartica was 100
